# Test system: LG0567-F671-PDC complex spheroids viability;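 further: spheroids exposed to compound for seven days before readout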
# measurement.notes: Anticancer human tumor LG0567-F671-PDC patient-derived lung adenocarcinoma cell line growth inhibition [RAS]; active means viability on the fitted dose curve at most 10% of control; inactive means the rest
# measurement.context: second compound 0.03 µM; first compound 0.1 µM
# output must be one of true (1) for active, false (0) for inactive

stdin: Assay result, entry CC(Nc1ccc2c(c1)OCCn1cc(N3C(=O)OCC3C(F)F)nc1-2)C(N)=O (stereo not drawn) + CCn1c(-c2cccnc2C(C)OC)c2c3cc(ccc31)N1CCOC(CC(NC(=O)C(C(C)C)N(C)C(=O)C3(F)CCN(C(=O)C#CC(C)(C)N(C)C)CC3)C(=O)N3CCCC(N3)C(=O)OCC(C)(C)C2)C1 — outcome?
stdout: true (1)

stdin: Assay result, entry CC1(O)CCCC1n1c(=O)c(C(F)F)cc2cnc(NC3CCN(S(C)(=O)=O)CC3)nc21 (stereo not drawn) + CCn1c(-c2cc(N3CCN(C)CC3)cnc2C(C)OC)c2c3cc(ccc31)-c1csc(n1)CC(NC(=O)C1CC1C)C(=O)N1CCCC(N1)C(=O)OCC(C)(C)C2 — outcome?
stdout: true (1)

stdin: Assay result, entry CC(=O)OC12COC1CC(O)C1(C)C(=O)C(O)C3=C(C)C(OC(=O)C(O)C(NC(=O)OC(C)(C)C)c4ccccc4)CC(O)(C(OC(=O)c4ccccc4)C21)C3(C)C (stereo not drawn) + CCn1c(-c2cc(N3CCN(C)CC3)cnc2C(C)OC)c2c3cc(ccc31)-c1csc(n1)CC(NC(=O)C1CC1C)C(=O)N1CCCC(N1)C(=O)OCC(C)(C)C2 — outcome?
stdout: true (1)

stdin: Assay result, entry C=CC(=O)N1CCN(c2nc(OCC3CCCN3C)nc3c(F)c(-c4nc(N)cc(C)c4C(F)(F)F)c(Cl)cc23)C(C)C1 (stereo not drawn) + CCn1c(-c2cccnc2C(C)OC)c2c3cc(ccc31)N1CCOC(CC(NC(=O)C(C(C)C)N(C)C(=O)C3(F)CCN(C(=O)C#CC(C)(C)N(C)C)CC3)C(=O)N3CCCC(N3)C(=O)OCC(C)(C)C2)C1 — outcome?
stdout: false (0)

stdin: Assay result, entry O=C(c1ccc(F)c(F)c1Nc1ccc(I)cc1F)N1CC(O)([C@@H]2CCCCN2)C1 + CCn1c(-c2cc(N3CCN(C)CC3)cnc2C(C)OC)c2c3cc(ccc31)-c1csc(n1)CC(NC(=O)C1CC1C)C(=O)N1CCCC(N1)C(=O)OCC(C)(C)C2 — outcome?
stdout: true (1)

stdin: Assay result, entry CCC(CC)c1cc(NC2CCC(N)C2)n2nccc2n1 (stereo not drawn) + CCn1c(-c2cc(N3CCN(C)CC3)cnc2C(C)OC)c2c3cc(ccc31)-c1csc(n1)CC(NC(=O)C1CC1C)C(=O)N1CCCC(N1)C(=O)OCC(C)(C)C2 — outcome?
stdout: true (1)

stdin: Assay result, entry Cc1nc(N2CCC3(CC2)COC(C)C3N)c(CO)nc1Sc1ccnc(N)c1Cl (stereo not drawn) + CCn1c(-c2cc(N3CCN(C)CC3)cnc2C(C)OC)c2c3cc(ccc31)-c1csc(n1)CC(NC(=O)C1CC1C)C(=O)N1CCCC(N1)C(=O)OCC(C)(C)C2 — outcome?
stdout: true (1)

stdin: Assay result, entry CC(C)NCC(C(=O)N1CCN(c2ncnc3c2C(C)CC3O)CC1)c1ccc(Cl)cc1 (stereo not drawn) + CCn1c(-c2cccnc2C(C)OC)c2c3cc(ccc31)N1CCOC(CC(NC(=O)C(C(C)C)N(C)C(=O)C3(F)CCN(C(=O)C#CC(C)(C)N(C)C)CC3)C(=O)N3CCCC(N3)C(=O)OCC(C)(C)C2)C1 — outcome?
stdout: true (1)
